Data credit: PubChem BioAssay (Tox21)

Reported Potency values are given for each entry in this list.
Experimental protocol: qHTS assay to identify small molecule agonists of H2AX (AID 1224845); further: potency means the concentration at half of the fitted maximal effect
Condition context: CHO-K1 phospho-H2AX Ser139 HTRF, 3 h; series mostly up to 154 µM
Results filed as inconclusive are left out. Activity calls are given as the source filed them. The call rests on the fitted dose curve; in most records, active means well fitted activation curve with a large enough effect in the signal ratio in the repeat runs (not every such curve was filed as active); inconclusive means weak or mixed curves; inactive means flat fitted curve, though single readings scatter; the % refers to the signal ratio.

Worked cases, Potency given:
Structure	Potency
COCC(=O)O[C@]1(CCN(C)CCCc2nc3ccccc3[nH]2)CCc2cc(F)ccc2[C@@H]1C(C)C	49.2 µM (active)
CCCCCCCCCCCCOC(=O)c1cc(O)c(O)c(O)c1	11.3 µM (active)
Cc1nc(Nc2ncc(C(=O)Nc3c(C)cccc3Cl)s2)cc(N2CCN(CCO)CC2)n1	55.2 µM (active)
C=C(c1ccc(C(=O)O)cc1)c1cc2c(cc1C)C(C)(C)CCC2(C)C	89.8 µM (active)

Turning to the following compound.
Request: Can you look up the measured Potency of `CCCCCCOc1ccc(O)cc1` for me?
Response: 11.3 µM (active)
